# MEASUREMENT_PROTOCOL: in vivo
# Set-up: species or system SD rats
# APPLIED_CONDITIONS: male, SD, rat, plasma, iv, 0.2 mg/kg; read-out: Initial Concentration C0
I'd be grateful if you could share measured C0 for these entries.
Give bare numbers, in µM.

Below, 2 compounds whose answers are already recorded.
| COMPOUND_STRING | UNITS | C0 |
| --- | --- | --- |
| C[C@H](NC1=CC(=O)C2(CCCC2)C(=O)N1)c1ccccc1 | µM | 0.773 |
| C[C@H](NC1=CC(=O)C2(CCCC2)C(=O)N1)c1cccc(Cl)c1 | µM | 3.7 |

Could you now consider this next compound?
Fill in: C0 of Cc1ccc(F)c([C@H](C)NC2=CC(=O)C3(CCCC3)C(=O)N2)c1 is ___
4.82
